# target-of-assay: GST tagged Bcl w delta C29 protein (UniProt Q92843)
# assay-overview: competition assay; compared with the linear 16-mer
recorded-metric: fold decrease in binding affinity against the linear 16-mer (fold)

{"binder": "Ac-IWIAQEARRIGDEFNA-NH2 [Peptide J (linear) Ac-…-NH2]", "unit-abbrev": "fold", "assay-result": 1000}

a = Ac-IWAAQELRRIGDEFNA-NH2 [Peptide I (linear) Ac-…-NH2]
b = Ac-IWIAQELRRAGDEFNA-NH2 [Peptide K (linear) Ac-…-NH2]
Ask: Select one: a or b . Criterion: greater recorded fold decrease in binding affinity against the linear 16-mer. API: response body contains the label of the selected item.
Result: a

a = Ac-IWAAQEARRAGDEANA-NH2 [Peptide M (linear) Ac-…-NH2]
b = Ac-IWIAQELRRIGDEANA-NH2 [Peptide L (linear) Ac-…-NH2]
Ask: Among a and b , whose measured fold decrease in binding affinity against the linear 16-mer is the smaller figure? API: response body contains the label of the selected item.
Result: b
